target: DNA polymerase III PolC-type (Bacillus subtilis (strain 168), UniProt P13267); test: Concentration producing 50% inhibition of Bacillus subtilis DNA polymerase III in the absence of dGTP using DNA Polymerase assay; conditions: read-out: Ki
Sequence (P13267 whole entry): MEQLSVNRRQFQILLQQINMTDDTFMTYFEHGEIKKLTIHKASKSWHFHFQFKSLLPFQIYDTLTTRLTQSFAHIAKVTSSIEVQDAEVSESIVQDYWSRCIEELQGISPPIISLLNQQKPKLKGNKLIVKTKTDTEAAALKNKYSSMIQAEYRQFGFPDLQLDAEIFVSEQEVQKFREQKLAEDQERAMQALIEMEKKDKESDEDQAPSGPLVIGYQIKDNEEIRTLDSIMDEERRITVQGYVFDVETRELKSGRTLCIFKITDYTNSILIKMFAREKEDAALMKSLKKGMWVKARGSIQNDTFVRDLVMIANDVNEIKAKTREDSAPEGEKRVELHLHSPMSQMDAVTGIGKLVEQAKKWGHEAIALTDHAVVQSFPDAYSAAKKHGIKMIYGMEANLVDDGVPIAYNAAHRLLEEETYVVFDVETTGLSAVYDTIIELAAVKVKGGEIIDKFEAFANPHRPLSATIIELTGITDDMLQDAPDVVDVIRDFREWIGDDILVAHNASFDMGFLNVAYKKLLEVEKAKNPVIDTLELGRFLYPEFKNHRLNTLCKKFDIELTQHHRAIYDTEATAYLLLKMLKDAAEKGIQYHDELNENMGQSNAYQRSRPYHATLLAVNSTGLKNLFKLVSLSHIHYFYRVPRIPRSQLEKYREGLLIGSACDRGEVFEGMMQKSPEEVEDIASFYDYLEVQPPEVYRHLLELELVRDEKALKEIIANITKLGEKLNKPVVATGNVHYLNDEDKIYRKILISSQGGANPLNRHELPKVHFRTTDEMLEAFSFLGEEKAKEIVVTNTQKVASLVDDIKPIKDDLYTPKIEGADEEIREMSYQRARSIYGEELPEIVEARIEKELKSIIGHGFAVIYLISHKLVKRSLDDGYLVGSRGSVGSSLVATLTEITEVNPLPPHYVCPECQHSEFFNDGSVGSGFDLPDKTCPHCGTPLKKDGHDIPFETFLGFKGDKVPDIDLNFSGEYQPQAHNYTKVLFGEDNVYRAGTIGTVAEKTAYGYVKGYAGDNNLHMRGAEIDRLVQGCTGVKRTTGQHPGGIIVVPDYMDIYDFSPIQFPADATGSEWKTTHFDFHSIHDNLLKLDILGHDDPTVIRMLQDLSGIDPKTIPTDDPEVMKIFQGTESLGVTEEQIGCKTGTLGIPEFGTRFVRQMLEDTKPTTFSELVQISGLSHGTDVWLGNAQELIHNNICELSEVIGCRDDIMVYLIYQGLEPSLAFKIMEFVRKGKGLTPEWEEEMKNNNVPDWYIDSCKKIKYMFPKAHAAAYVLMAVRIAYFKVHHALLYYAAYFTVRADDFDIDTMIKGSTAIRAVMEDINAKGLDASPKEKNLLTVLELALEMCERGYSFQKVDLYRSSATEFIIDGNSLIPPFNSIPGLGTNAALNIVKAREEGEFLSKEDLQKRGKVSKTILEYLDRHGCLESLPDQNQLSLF
The reader will find reported IC50 values listed item by item below.
Numbers only here, please. The scale is µM.

Completed entries (count: 6):
Cc1ccc(Nc2nc(=O)[nH]c(=O)[nH]2)cc1	70
Cc1ccc(Nc2[nH]c(=O)[nH]c(=O)c2C)cc1	1580
O=c1nc(NCc2ccccc2)[nH]c(=O)[nH]1	20
CCc1c(O)nc(O)nc1NCc1ccccc1	2820
O=c1[nH]c(NCc2ccccc2)c(I)c(=O)[nH]1	9
Cc1ccc(Nc2nc(O)nc(O)c2Br)cc1	14

Note: attention shifts to another entry.
Q: // returns reported IC50 for input Oc1nc(O)c(Br)c(NCc2ccccc2)n1
A: 9

====

biological target: DNA polymerase III PolC-type (Bacillus subtilis (strain 168), UniProt P13267); assay: Compound was tested for its inhibitory activity against Bacillus subtilis DNA topoisomerase III using DNA Polymerase assay
MEASUREMENT_LABEL: Ki (µM)
Give the value, in units of µM, as a plain number.

Q: Data request, read-out Ki, for Nc1nc(Cl)cc(NCc2ccccc2)n1
A: 17

====

molecular target: DNA polymerase III PolC-type (Bacillus subtilis (strain 168), UniProt P13267); assay: Concentration producing 50% inhibition of Bacillus subtilis […] in the absence using DNA Polymerase assay
MEASUREMENT_LABEL: pKi
Answer as the number alone; pKi is minus log10 of concentration in mol/L.

Q: Give recorded pKi with DNA polymerase III PolC-type (Bacillus subtilis (strain 168), UniProt P13267) for the following compound: Cc1c(O)nc(O)nc1NCc1ccccc1
A: 3.36
